Assay: Pharmacokinetic study: plasma levels after oral SZ-A in SD rats (LC-MS/MS, DAS 3.2.8)
Assay type: in vivo
Settings: both sexes, rat, plasma, oral SZ-A 25 mg/kg, n=8, read-out: MRT(0-∞)
Endpoint Label: MRT inf (h)

OC[C@H]1NC[C@H](O)[C@@H](O)[C@@H]1O    1.27
OC[C@H]1NCC[C@@H](O)[C@@H]1O    1.55
OC[C@H]1NC[C@@H](O)[C@@H]1O    1.26

###

Molecular target: CYP1A2 (Rattus norvegicus, UniProt P04799)
Sequence (P04799 whole entry): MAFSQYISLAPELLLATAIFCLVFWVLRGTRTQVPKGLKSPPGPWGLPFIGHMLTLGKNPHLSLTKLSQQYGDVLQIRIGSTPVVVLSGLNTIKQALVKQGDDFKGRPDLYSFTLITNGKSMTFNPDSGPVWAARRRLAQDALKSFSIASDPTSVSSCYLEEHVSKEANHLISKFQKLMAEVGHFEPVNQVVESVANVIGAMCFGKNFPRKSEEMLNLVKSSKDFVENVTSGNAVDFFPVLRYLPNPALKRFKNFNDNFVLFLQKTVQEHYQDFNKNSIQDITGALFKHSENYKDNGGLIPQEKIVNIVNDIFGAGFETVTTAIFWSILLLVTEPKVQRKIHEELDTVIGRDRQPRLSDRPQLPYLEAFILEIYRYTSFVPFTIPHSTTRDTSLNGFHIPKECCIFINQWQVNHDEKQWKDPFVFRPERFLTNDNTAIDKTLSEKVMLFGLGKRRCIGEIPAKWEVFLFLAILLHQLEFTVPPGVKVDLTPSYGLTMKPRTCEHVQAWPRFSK
Experiment: in vitro
Settings: liver microsomes, pH 7.4, probe phenacetin (50 μM)
Endpoint Label: inhibition at 30 min, 50 μM (%)
Hi! Could you send only the number? It should be in %, unit omitted.

Fill in inhibition at 30 min, 50 μM for `Cc1nc2c([nH]1)c(=O)n(C)c(=O)n2Cc1ccco1` tested with CYP1A2 (Rattus norvegicus, UniProt P04799).
66.3

meta.source: paper PMC9981942
